Listing of entries alongside the reported pIC50.
system-under-test: MCR-1 (Homo sapiens, UniProt Q01726)
Construct: expressed in transfected cells; host or cells: HEK 293
Sequence (Q01726 whole entry): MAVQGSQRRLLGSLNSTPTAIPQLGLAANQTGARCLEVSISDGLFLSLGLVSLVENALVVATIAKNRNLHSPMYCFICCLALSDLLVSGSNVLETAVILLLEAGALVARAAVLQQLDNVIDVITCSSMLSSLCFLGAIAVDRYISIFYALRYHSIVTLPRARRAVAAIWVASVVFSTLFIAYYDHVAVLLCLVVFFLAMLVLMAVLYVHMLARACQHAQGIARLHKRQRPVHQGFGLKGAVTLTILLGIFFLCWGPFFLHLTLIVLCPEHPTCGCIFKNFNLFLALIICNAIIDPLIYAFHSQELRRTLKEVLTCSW
assay-details: Melanocortin receptor binding assay, competition with 125I-HP 467, HEK 293 cells expressing hMCR-1
condition: TRG 2406 and TRG 2407 libraries; inhibition of binding of 125I-HP 467; read-out: MC-1 IC50
Scale explanation: pIC50 corresponds to minus log10 of a concentration expressed in moles per litre.

Recorded pIC50, per entry:
CNC(CN)CCCCN1Cc2ccccc2C(CN(C)C2CCCCC2)C1c1ccc(Cl)cc1Cl (centres unmarked) [TRG 2407-30] | 5.50
CNC(CN)CCCCN1Cc2ccccc2C(CNCc2ccccc2O)C1c1ccc(Oc2ccccc2)cc1 (centres unmarked) [TRG 2406-13] | 6.74
CNC(CN)CCCCN1Cc2ccccc2C(CNCc2cccc(OC)c2)C1c1ccc(Cl)cc1Cl (centres unmarked) [TRG 2407-16] | 5.23
CNC(CN)CCCCN1Cc2ccccc2C(CNc2cccc(O)c2)C1c1ccc(Cl)cc1Cl (centres unmarked) [TRG 2407-7] | 5.36
CCNc1ccc(C2C(CNc3ccccc3)c3ccccc3CN2CCCCC(CN)NC)cc1 (centres unmarked) [TRG 2407-41] | 5.23

## Input Which pIC50 is reported for this compound? CCNc1ccc(C2C(CN(C)c3ccccc3)c3ccccc3CN2CCCCC(CN)NC)cc1 (centres unmarked) [TRG 2407-42]
## Output 5.37

## Input Now consider NCCN1Cc2ccccc2C(CNCc2ccccc2O)C1c1cccc(Oc2ccc(Cl)c(Cl)c2)c1 (centres unmarked) [TRG 2406-2] .
## Output 5.10

## Input Please do the same for CCNc1ccc(C2C(CNCc3ccccc3OCC)c3ccccc3CN2CCCCC(CN)NC)cc1 (centres unmarked) [TRG 2407-55] as well.
## Output 6.72

## Input Now the same for CNC(CN)CN1Cc2ccccc2C(CNCc2ccccc2O)C1c1cccc(Oc2ccc(OC)cc2)c1 (centres unmarked) [TRG 2406-6]
## Output 5.50

## Input What about CNC(CN)CCCCN1Cc2ccccc2C(CNCCc2ccccc2Cl)C1c1ccc(Cl)cc1Cl (mixture of isomers) [TRG 2407-22] ?
## Output 5.87

----------
system-under-test: MCR-1 (Homo sapiens, UniProt Q01726)
Construct: expressed in transfected cells; host or cells: HEK 293
assay-details: Melanocortin receptor binding assay, competition with 125I-HP 467, HEK 293 cells expressing hMCR-1
condition: 10 μM isoquinoline compound, HEK 293 cells expressing MCR-1, duplicate 2
% Disp. of 125I-HP 467 (second of duplicate) of 50% or higher: T. Under 50%: F.

# count of solved cases: 6
CNC(CN)CN1Cc2ccccc2C(CNC2CCCCC2)C1c1ccc2cccc(O)c2n1 (stereo not shown) | F
CNC(CN)CCCCN1Cc2ccccc2C(CNC2CCCCC2)C1c1ccc(C)s1 (stereo not shown) | T
CNC(CN)CCCCN1Cc2ccccc2C(CNC2CCCCC2)C1c1ccc([N+](=O)[O-])cc1 (stereo not shown) | F
CCn1c2ccccc2c2cc(C3C(CNC4CCCCC4)c4ccccc4CN3CC(CN)NC)ccc21 (stereo not shown) | T
CNC(CN)CCCCN1Cc2ccccc2C(CNC2CCCCC2)C1c1ccoc1 (stereo not shown) | F
CNC(CN)CCCCN1Cc2ccccc2C(CNC2CCCCC2)C1c1ccsc1 (mixture of isomers) | F

## Input Check if % Disp. of 125I-HP 467 (second of duplicate) >= 50% (inclusive). Item: CNC(CN)CCCCN1Cc2ccccc2C(CNC2CCCCC2)C1c1cc(C(F)(F)F)cc(C(F)(F)F)c1 (stereo not shown)
## Output T

## Input Also need CNC(CN)CN1Cc2ccccc2C(CNC2CCCCC2)C1c1ccc(OC)c(S(=O)(=O)O)c1 (stereo not shown) , thanks.
## Output F

## Input Same for CNC(CN)CCCCN1Cc2ccccc2C(CNC2CCCCC2)C1c1cc(Cl)cc(Cl)c1Cl (mixture of isomers)
## Output T

## Input Now try CNC(CN)CCCCN1Cc2ccccc2C(CNC2CCCCC2)C1c1ccnc2ccccc12 (stereo not shown) .
## Output F

## Input Try this compound too: CNC(CN)CCCCN1Cc2ccccc2C(CNC2CCCCC2)C1c1ccccc1OC (stereo not shown)
## Output T

## Input Entry CNC(CN)CCCCN1Cc2ccccc2C(CNC2CCCCC2)C1c1nccs1 (stereo not shown) please
## Output F

## Input Field entry: CNC(CN)CCCCN1Cc2ccccc2C(CNC2CCCCC2)C1c1cnc2ccccc2c1 (stereo not shown)
## Output F

## Input One more compound: CNC(CN)CCCCN1Cc2ccccc2C(CNC2CCCCC2)C1c1ccc[nH]1 (mixture of isomers)
## Output T

## Input Continue with CNC(CN)CCCCN1Cc2ccccc2C(CNC2CCCCC2)C1c1cccc(Oc2ccc(OC)cc2)c1 (stereo not shown)
## Output T

----------
system-under-test: MCR-1 (Homo sapiens, UniProt Q01726)
Construct: expressed in transfected cells; host or cells: HEK 293
assay-details: Melanocortin receptor binding assay, competition with 125I-HP 467, HEK 293 cells expressing hMCR-1
condition: displacement of 125I-HP 467 at 10 μM isoquinoline compound; first of duplicate
Please use Met for % Disp. MC-1 10 μM under 30% and Not met for everything else, ties included.

The examples below pair each entry with its known result.
CNC(CN)CN1Cc2ccccc2C(CNC2CCCCC2)C1c1ccc(OC)c(F)c1 (stereo not drawn) [TRG 2405-130] | Not met
NCCN1Cc2ccccc2C(CNC2CCCCC2)C1c1cc(C(F)(F)F)cc(C(F)(F)F)c1 (stereo not drawn) [TRG 2405-28] | Not met
NCCN1Cc2ccccc2C(CNC2CCCCC2)C1c1ccc(Br)cc1 (stereo not drawn) [TRG 2405-62] | Not met

## Input Just wondering, is % Disp. MC-1 10 μM of Cc1ccc(C2C(CNC3CCCCC3)c3ccccc3CN2CCN)o1 (stereo not drawn) [TRG 2405-79] below 30%?
## Output Met

## Input One more compound: CNC(CN)CN1Cc2ccccc2C(CNC2CCCCC2)C1c1ccc(C(F)(F)F)cc1 (stereo not drawn) [TRG 2405-148]
## Output Not met

## Input Thanks! And CNC(CN)CN1Cc2ccccc2C(CNC2CCCCC2)C1c1ccc(Cl)cc1Cl (stereo not drawn) [TRG 2405-100] ?
## Output Not met

## Input Here is the next compound: CNC(CN)CN1Cc2ccccc2C(CNC2CCCCC2)C1c1cnc2ccccc2c1 (stereo not drawn) [TRG 2405-142]
## Output Not met

## Input Entry to check: CCNc1ccc(C2C(CNC3CCCCC3)c3ccccc3CN2CCN)cc1 (stereo not drawn) [TRG 2405-59]
## Output Not met

## Input Queued: Cc1ccc(C2C(CNC3CCCCC3)c3ccccc3CN2CCN)cc1 (stereo not drawn) [TRG 2405-69]
## Output Not met

----------
system-under-test: MCR-1 (Homo sapiens)
Construct: expressed in transfected cells; host or cells: HEK 293
assay-details: Melanocortin receptor binding assay, competition with 125I-HP 467, HEK 293 cells expressing hMCR-1
condition: inhibition of binding of 125I-HP 467, HEK 293 cells expressing MCR-1; read-out: MC-1 IC50
endpoint-name: pIC50
Answer as the number alone; pIC50 is minus log10 of concentration in mol/L.

Before answering, review these 4 worked examples.
CCOc1ccc(CCNCC2c3ccccc3CN(CCCCC(CN)NCc3ccc(OC)cc3)C2c2cc(C(F)(F)F)cc(C(F)(F)F)c2)cc1 (stereo not shown) | 5.63
CCNc1ccc(C2C(CNCCc3ccccc3)c3ccccc3CN2CCCC(CN)NCCc2ccc(OC)cc2)cc1 (stereo not shown) | 6.96
CCNc1ccc(C2C(CNCCc3ccccc3)c3ccccc3CN2CCCCC(CN)NCCNC)cc1 (stereo not shown) | 6.47
NCC(CCCCN1Cc2ccccc2C(CNCCc2ccc(Oc3ccccc3)cc2)C1c1cc(C(F)(F)F)cc(C(F)(F)F)c1)NCc1ccc(Br)cc1 (stereo not shown) | 4.80

## Input Please report the recorded pIC50 for CCNc1ccc(C2C(CN)c3ccccc3CN2CCCC(CN)NCC2CC2CNCc2ccccc2)cc1 (stereo not shown) .
## Output 7.03

## Input Input CCNc1ccc(C2C(CNC3CCCCC3)c3ccccc3CN2CCCC(CN)NCCC2CCCCC2)cc1 (stereo not shown)
## Output 6.85

## Input Next up: NCC(CCCCN1Cc2ccccc2C(CNCCc2ccccc2)C1c1cccc(C(F)(F)F)c1)NCc1ccccc1 (stereo not shown)
## Output 5.60

----------
Tested on: IL-10
assay-details: Increasing levels of IL-10 in mice (plasma ELISA)
Type: in vivo
condition: IP, 300 μg per mouse; mouse plasma, 90 or 105 minutes
Measured % IL-10 Induction, IP 300 accompanies every entry in the list below.
Lab book: enter the figure in %, no units written.

Study these solved cases before continuing.
CNC(CN)CCCCN1Cc2ccccc2C(CN)C1c1ccc(Cl)cc1Cl (centres unmarked) | 366
CNC(CN)CN1Cc2ccccc2C(CNC2CCCCC2)C1c1ccc(O)cc1 (centres unmarked) | 43
CCCCNc1ccc(C2C(CNC3CCCCC3)c3ccccc3CN2CCCCC(CN)NC)cc1 (centres unmarked) | 150
CNC(CN)CCCCN1Cc2ccccc2C(CNC2CCCCC2)C1c1ccc(N(C)C)cc1 (centres unmarked) | 113
CNC(CN)CCCCN1Cc2ccccc2C(CNC2CCCCC2)C1c1ccc(Oc2ccccc2)cc1 (centres unmarked) | 307
CCNc1ccc(C2C(CNCc3ccccc3O)c3ccccc3CN2CCCC(CN)NCCc2ccccc2)cc1 (centres unmarked) | 386
CNC(CN)CCCCN1Cc2ccccc2C(CNC2CCCCC2)C1c1ccc2cccc(O)c2n1 (centres unmarked) | 191
CNC(CN)CCCCN1Cc2ccccc2C(CNC2CCCCC2)C1c1ccc(-c2ccccc2)cc1 (centres unmarked) | 406
CCNc1ccc(C2C(CNC3CCCCC3)c3ccccc3CN2CCCCC(CN)NC)cc1 (centres unmarked) [TRG 2408-30] | 24
CCNc1ccc(C2C(CNC3CCCCC3)c3ccccc3CN2CCCCC(CN)NC)cc1 (centres unmarked) [TRG 2405-239] | 197

## Input Could you share which % IL-10 Induction, IP 300 value was measured for CNC(CN)CCCCN1Cc2ccccc2C(CNC2CCCCC2)C1c1ccc(OC)c(S(=O)(=O)O)c1 (centres unmarked) ?
## Output 6

## Input Can you handle CCCCNc1ccc(C2C(CNCc3ccccc3O)c3ccccc3CN2CCCCC(CN)NC)cc1 (centres unmarked) next?
## Output 157

## Input // repeat for CCNc1ccc(C2C(CNC3CCCCC3)c3ccccc3CN2CCCC(CN)NCCc2ccccc2)cc1 (centres unmarked) and report
## Output 270

Hey, just so you know, these numbers are from patent US6608082B1.
